Every entry's value here was drawn from patent US20250289893A1.

- target: T1, human CD1a expressed on cells (human, UniProt P06126 17-327; P61769 21-119)
- T1 construct: also called HEK - CD1a; C1R - CD1a
- assayText: flow cytometry, HEK-293 cells, 100 µg/ml antibody
metric: Fluorescence Intensity Geomean (normalized to background) (fold over background)
Provide only the numeric value, understood in fold over background.

Solved cases below.
>>> testvalue("111 (VR12113) (antibody, V domains shown, also called OX111) VH: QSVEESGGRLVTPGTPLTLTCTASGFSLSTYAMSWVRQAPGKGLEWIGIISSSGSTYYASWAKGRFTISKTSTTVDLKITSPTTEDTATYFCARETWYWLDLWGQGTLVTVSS VL: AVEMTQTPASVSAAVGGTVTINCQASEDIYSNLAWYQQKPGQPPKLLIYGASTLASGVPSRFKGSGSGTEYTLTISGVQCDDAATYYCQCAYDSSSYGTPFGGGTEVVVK")
4.3
>>> testvalue("77A (VR11851) (antibody, V domains shown, also called OX77a; antibody 77a) VH: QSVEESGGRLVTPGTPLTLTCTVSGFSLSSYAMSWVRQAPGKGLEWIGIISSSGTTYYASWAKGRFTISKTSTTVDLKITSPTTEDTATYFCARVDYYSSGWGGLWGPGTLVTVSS VL: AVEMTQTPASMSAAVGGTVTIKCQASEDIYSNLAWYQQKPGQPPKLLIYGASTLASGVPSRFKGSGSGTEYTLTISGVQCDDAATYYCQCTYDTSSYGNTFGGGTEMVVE")
4.1
>>> testvalue("116 (VR12117) (antibody, V domains shown, also called OX116) VH: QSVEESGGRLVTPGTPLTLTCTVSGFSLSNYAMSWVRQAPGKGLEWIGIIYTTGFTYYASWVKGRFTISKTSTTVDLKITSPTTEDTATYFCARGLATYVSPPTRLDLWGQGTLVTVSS VL: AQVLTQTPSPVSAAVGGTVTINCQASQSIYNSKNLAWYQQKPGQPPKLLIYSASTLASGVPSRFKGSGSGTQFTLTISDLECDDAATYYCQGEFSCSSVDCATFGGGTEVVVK")
3.9

Turning now to a further binder:
Q. Name the recorded Fluorescence Intensity Geomean (normalized to background) of the item 110 (VR12112) (antibody, V domains shown, also called OX110; antibody 110) VH: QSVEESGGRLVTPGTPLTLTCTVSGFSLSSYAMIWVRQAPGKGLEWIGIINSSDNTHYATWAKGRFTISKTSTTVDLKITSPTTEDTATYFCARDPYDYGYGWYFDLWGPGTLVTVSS VL: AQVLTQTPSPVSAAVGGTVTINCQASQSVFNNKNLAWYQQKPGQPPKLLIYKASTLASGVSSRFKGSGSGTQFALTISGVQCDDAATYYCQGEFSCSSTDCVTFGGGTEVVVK in your answer.
A. 5.9
